- Test system: S. haemolyticus 114126
- MEASUREMENT_DESCRIPTION: BCT test (bacterial contact time), 120 s, log reduction / effect fraction; CI by Compusyn
- Type: cell-based
- PARTICULARS: Staphylococcus haemolyticus, 114126, 2 min, dose 0.3% w/v; contact 120 s; 25% EtOH; read-out: Log reduction
log reduction at 0.3 % strength values by entry

| COMPOUND | log reduction at 0.3 % strength |
| --- | --- |
| C=CCc1ccc(O)c(OC)c1 [Eugenol F, 2-Methoxy-4-(prop-2-en-1-yl)phenol] | 4.9 |
| CC(=O)OCc1ccccc1 [Benzyl acetate, benzyl acetate] | 0.5 |
| CC1=CCC(C(C)(C)O)CC1 (stereo not shown) [Terpineol Ord] | 7.4 |
| C/C=C/c1ccc(O)c(OC)c1 [Isoeugenol, 2-Methoxy-4-(prop-1-en-1-yl)phenol] | 3.7 |

---

- Tested on: S. aureus ATCC 6538
- MEASUREMENT_DESCRIPTION: BCT test (bacterial contact time), 60 s, log reduction / effect fraction; CI by Compusyn
- Format: cell-based, Staphylococcus aureus
- PARTICULARS: Staphylococcus aureus, ATCC6538, 1 min, dose 0.050 % w/v; 60 s; in 25% EtOH
log reduction at 0.05 % strength values by entry
PROPERTY: log reduction at 0.05 % strength

| COMPOUND | PROPERTY | RECORDED_MEASUREMENT |
| --- | --- | --- |
| CC(CCO)CCc1ccccc1 (stereo not shown) | log reduction at 0.05 % strength | 1 |
| CCC(C)(O)CCCC(C)C (stereo not shown) | log reduction at 0.05 % strength | 5.5 |
| C=C(C)[C@@H]1CC=C(CO)CC1 | log reduction at 0.05 % strength | 0.2 |
| CC(C)=CCC/C(C)=C/CO | log reduction at 0.05 % strength | 0.2 |

---

- Test system: C. xerosis ATCC 373
- MEASUREMENT_DESCRIPTION: BCT test (bacterial contact time), 120 s, log reduction / effect fraction; CI by Compusyn
- Type: cell-based
- PARTICULARS: Corynebacterium xerosis, ATCC373, 2 min, dose 0.2% w/v; contact 120 s; 25% EtOH; read-out: Log reduction
- Procedure: C. xerosis: Suspensions of the C. xerosis ATCC 373 strain were prepared as follows: Stock cultures (stored at −80° C.) were thawed and subcultured onto Tryptic Soy Agar media with Tween 80 (TSA-TW80), and incubated at 37° C. for 48 h. […] Each plate was sealed and incubated at 37° C. under agitation (180 rpm). After incubation, the turbidity of the wells (OD600 nm) was determined using a Tecan microplate reader. […] The total number of viable cells (log CFU) for each sample was calculated. […]

| MOLECULE | TARGET_OR_TEST_SYSTEM | log reduction at 0.2 % strength |
| --- | --- | --- |
| C=C(C)[C@@H]1CC=C(CO)CC1 [Perycorolle] | C. xerosis ATCC 373 | 4.8 |
| CC(CCO)CCc1ccccc1 (stereo not drawn) [Phenylhexanol, 3-methyl-5-phenyl-1-pentanol] | C. xerosis ATCC 373 | 4.2 |
| C=CCc1ccc(O)c(OC)c1 [Eugenol F, 2-Methoxy-4-(prop-2-en-1-yl)phenol] | C. xerosis ATCC 373 | 0.4 |
| CCCCCCC1CCC(=O)O1 (stereo not drawn) [Decal] | C. xerosis ATCC 373 | 4.6 |
| CCC(C)(O)CCCC(C)C (stereo not drawn) [Tetralinol, 3,7-Dimethyl-3-octanol] | C. xerosis ATCC 373 | 5.7 |
| CC(C)=CCC/C(C)=C/CO [Geraniol Pur] | C. xerosis ATCC 373 | 7 |

Cited source for all entries: patent US12419305B2
